Values from ChEMBL document CHEMBL1201862

Measured GI50 of individual entries
# System: OVCAR-5
# ASSAY_INFO: NCI tumour cell line growth inhibition, 48 h
Calls of active or inactive are those of the source. No stated cut-off is given here; in the data, active = GI50 up to about 1.1 µM and inactive = higher.
MEASURED_PARAMETER: GI50

>  <COMPOUND>
O=C(O)c1cc2c3ccccc3nc-2c[nH]1

>  <MEASURED_PARAMETER>
GI50

>  <RESULT_VALUE>
> 100 µM (inactive)

$$$$
>  <COMPOUND>
C[C@]12Cc3conc3C(O)=C1CC[C@@H]1C2CC[C@@]2(C)C1CC[C@]2(C)O (stereo partly drawn)

>  <MEASURED_PARAMETER>
GI50

>  <RESULT_VALUE>
29.2 µM (inactive)

$$$$
>  <COMPOUND>
Oc1c(/N=N/c2ccccc2)c2ccccc2c2ccc3ccccc3c12

>  <MEASURED_PARAMETER>
GI50

>  <RESULT_VALUE>
> 100 µM (inactive)

$$$$
>  <COMPOUND>
C/C(CC(=O)Nc1cc(Cl)c(Cl)cc1Cl)=N\NS(=O)(=O)c1ccc(C)cc1

>  <MEASURED_PARAMETER>
GI50

>  <RESULT_VALUE>
53.8 µM (inactive)

$$$$
>  <COMPOUND>
O=C(C(=O)n1ccc2ccccc21)n1ccc2ccccc21

>  <MEASURED_PARAMETER>
GI50

>  <RESULT_VALUE>
> 100 µM (inactive)

$$$$
>  <COMPOUND>
O=C(NCCCCNCCCNC(=O)OCc1ccccc1)OCc1ccccc1

>  <MEASURED_PARAMETER>
GI50

>  <RESULT_VALUE>
85.1 µM (inactive)

$$$$
>  <COMPOUND>
[N-]=[N+]=NC1=C(c2ccccn2)C(=O)c2cccc3cccc1c23

>  <MEASURED_PARAMETER>
GI50

>  <RESULT_VALUE>
79.6 µM (inactive)

$$$$
>  <COMPOUND>
CCOC(=O)Nc1ccc(S(=O)(=O)Nn2cnnc2)cc1

>  <MEASURED_PARAMETER>
GI50

>  <RESULT_VALUE>
> 100 µM (inactive)

$$$$
>  <COMPOUND>
Nc1cccc(CCN2CCN(CCCc3ccccc3)CC2)c1

>  <MEASURED_PARAMETER>
GI50

>  <RESULT_VALUE>
> 100 µM (inactive)

$$$$
>  <COMPOUND>
COc1ccc2c(c1)OCC1=C2Oc2ccccc2C1

>  <MEASURED_PARAMETER>
GI50

>  <RESULT_VALUE>
30.1 µM (inactive)

$$$$
>  <COMPOUND>
O=[N+]([O-])c1ccc(C2SCc3nc4ccccc4n32)cc1 (stereo not drawn)

>  <MEASURED_PARAMETER>
GI50

>  <RESULT_VALUE>
17.6 µM (inactive)

$$$$
>  <COMPOUND>
CC(C)(C)OC(=O)N1CCC[C@H]1CSC[C@@H]1CCCN1C(=O)OC(C)(C)C

>  <MEASURED_PARAMETER>
GI50

>  <RESULT_VALUE>
34.2 µM (inactive)

$$$$
>  <COMPOUND>
NC(=O)[N+](=CC(=S)Nc1ccccc1Cl)C(N)=O

>  <MEASURED_PARAMETER>
GI50

>  <RESULT_VALUE>
> 100 µM (inactive)

$$$$
>  <COMPOUND>
Fc1ccc(F)c(/C=N/C23CC4CC(CC(C4)C2)C3)c1

>  <MEASURED_PARAMETER>
GI50

>  <RESULT_VALUE>
> 10 µM (inactive)

$$$$
>  <COMPOUND>
Nc1nc(OCC2CCCCC2)c2nc[nH]c2n1

>  <MEASURED_PARAMETER>
GI50

>  <RESULT_VALUE>
13.6 µM (inactive)

$$$$
>  <COMPOUND>
c1ccc2c(NCCCCCCNc3cccc4ccccc34)cccc2c1

>  <MEASURED_PARAMETER>
GI50

>  <RESULT_VALUE>
> 100 µM (inactive)

$$$$
>  <COMPOUND>
Oc1ccc(-c2nc3ccc(Cl)cc3s2)cc1

>  <MEASURED_PARAMETER>
GI50

>  <RESULT_VALUE>
17.9 µM (inactive)

$$$$
>  <COMPOUND>
CN1C(=O)CN2C(Cl)(Cl)C2(c2ccccc2F)c2cc([N+](=O)[O-])ccc21 (stereo not drawn)

>  <MEASURED_PARAMETER>
GI50

>  <RESULT_VALUE>
> 100 µM (inactive)

$$$$
>  <COMPOUND>
O=C(CN1CCOCC1)Nc1ccc2c(c1)C1Oc3ccccc3CC1CO2 (stereo not drawn)

>  <MEASURED_PARAMETER>
GI50

>  <RESULT_VALUE>
> 100 µM (inactive)

$$$$
>  <COMPOUND>
CCOC(=O)c1ccc(Nc2cnc3ccc(C(F)(F)F)cc3n2)cc1

>  <MEASURED_PARAMETER>
GI50

>  <RESULT_VALUE>
24.9 µM (inactive)

$$$$
>  <COMPOUND>
O=C(c1ccccc1)c1ccc2cccc(OC3OC(CO)C(O)C(O)C3O)c2n1 (stereo not drawn)

>  <MEASURED_PARAMETER>
GI50

>  <RESULT_VALUE>
> 100 µM (inactive)

$$$$
>  <COMPOUND>
Nc1nc2c(ncn2CC2CCC(CO)C2)c(=O)[nH]1 (stereo not drawn)

>  <MEASURED_PARAMETER>
GI50

>  <RESULT_VALUE>
> 100 µM (inactive)

$$$$
>  <COMPOUND>
COC1=C(OC)C(=O)c2cc(C)c(=O)c(C)cc2C1=O

>  <MEASURED_PARAMETER>
GI50

>  <RESULT_VALUE>
31.3 µM (inactive)

$$$$
